experiment: DRUGMATRIX: Phosphodiesterase PDE3 enzyme inhibition (substrate: [3H]cAMP + cAMP); assay type: tissue-based, Homo sapiens; conditions: platelet; Not Active = under 50% inhibition at 10 µM
Where a SMILES comes first, the peptide text is derived from it. Bridges are numbered along the chain shown (N, C = ends). [ ]: non-standard residue; d: D form. The star is where a group is joined. Threoninol(2S,3R) = C[C@@H](O)[C@H](CO)N*
Property Measured: Ki

Example compounds with recorded Ki:
Compound: OC(CCN1CCCCC1)(c1ccccc1)C1CCCCC1 (stereo unspecified) [TRIHEXYPHENIDYL]
Property Measured: Ki
Meas Value: Not Active
--
Compound: N[C@H](CSC(=S)NCc1ccccc1)C(=O)O
Property Measured: Ki
Meas Value: Not Active
--
Compound: Oc1ccc(OCc2ccccc2)cc1 [MONOBENZONE]
Property Measured: Ki
Meas Value: Not Active
--
Compound: C[C@](O)(CS(=O)(=O)c1ccc(F)cc1)C(=O)Nc1ccc(C#N)c(C(F)(F)F)c1 [(R)-BICALUTAMIDE]
Property Measured: Ki
Meas Value: Not Active
--
Compound: COc1cccc2c1C(=O)c1c(O)c3c(c(O)c1C2=O)C[C@@](O)(C(=O)CO)C[C@@H]3O[C@H]1C[C@H](N)[C@@H](O)[C@H](C)O1 [EPIRUBICIN]
Property Measured: Ki
Meas Value: Not Active
--
Compound: NC(=O)NO [HYDROXYUREA]
Property Measured: Ki
Meas Value: Not Active
--
Compound: Cc1ncc([N+](=O)[O-])n1CCO [METRONIDAZOLE]
Property Measured: Ki
Meas Value: Not Active
--
Compound: C[C@]12CC[C@@H]3c4ccc(OC(=O)c5ccccc5)cc4CC[C@H]3[C@@H]1CC[C@@H]2O [ESTRADIOL BENZOATE]
Property Measured: Ki
Meas Value: Not Active

// each compound listed below needs its Ki
1. CCCC(CCC)C(=O)O [VALPROIC ACID]
2. CC(=O)Nc1cccc(O)c1 [METACETAMOL]
3. O=C(O)Cc1ccccc1Nc1c(Cl)cccc1Cl [DICLOFENAC]
4. CCN[C@@H]1C[C@H](N)[C@@H](O[C@H]2OC(CN)=CC[C@H]2N)[C@H](O)[C@H]1O[C@H]1OC[C@](C)(O)[C@H](NC)[C@H]1O [NETILMICIN]
5. CCN1CC(CCN2CCOCC2)C(c2ccccc2)(c2ccccc2)C1=O (stereo unspecified) [DOXAPRAM]
6. CC1=C(CC(=O)O)c2cc(F)ccc2/C1=C\c1ccc([S+](C)[O-])cc1 (stereo unspecified)
7. COc1ccccc1C(=O)N1CCC(Cc2ccccc2)CC1
8. C[C@@H](O)[C@H](CO)NC(=O)[C@@H]1CSSC[C@H](NC(=O)[C@H](N)Cc2ccccc2)C(=O)N[C@@H](Cc2ccccc2)C(=O)N[C@H](Cc2c[nH]c3ccccc23)C(=O)N[C@@H](CCCCN)C(=O)N[C@@H]([C@@H](C)O)C(=O)N1 (H-[dF]CF[dW]KTC-{Threoninol(2S,3R)}; disulfide 2-7)

Response line:
1: Not Active; 2: Not Active; 3: Not Active; 4: Not Active; 5: Not Active; 6: Not Active; 7: Not Active; 8: Not Active

// each compound listed below needs its Ki
1. ClC(Cl)Cl [CHLOROFORM]
2. O=C(c1ccc(OCCN2CCCCC2)cc1)c1c(-c2ccc(O)cc2)sc2cc(O)ccc12 [RALOXIFENE]
3. CN1C(=O)COc2c(C(=O)NC3CN4CCC3CC4)cc(Cl)cc21 (stereo unspecified) [AZASETRON]

Response line:
1. Not Active
2. Not Active
3. Not Active

// each compound listed below needs its Ki
1. C#C[C@]1(OC(C)=O)CC[C@H]2[C@@H]3CCC4=CC(=O)CC[C@@H]4[C@H]3CC[C@@]21C [NORETHINDRONE ACETATE]
2. Nc1c(CC(=O)O)cccc1C(=O)c1ccc(Br)cc1 [BROMFENAC]
3. NC(=O)c1cnccn1 [PYRAZINAMIDE]
4. CCn1cc(C(=O)O)c(=O)c2cc(F)c(N3CCN(C)CC3)cc21 [PEFLOXACIN]
5. CC1(C)O[C@@H]2C[C@H]3[C@@H]4C[C@H](F)C5=CC(=O)C=C[C@]5(C)[C@H]4[C@@H](O)C[C@]3(C)[C@]2(C(=O)CO)O1 [FLUNISOLIDE]
6. CC1=C(C(=O)O)N2C(=O)[C@@H](NC(=O)[C@H](N)c3ccccc3)[C@H]2SC1 [CEPHALEXIN ANHYDROUS]
7. CC(C)[C@H]1CC[C@H](C(=O)N[C@H](Cc2ccccc2)C(=O)O)CC1 [NATEGLINIDE]

Response line:
["Not Active", "Not Active", "Not Active", "Not Active", "Not Active", "Not Active", "Not Active"]

---

target: UniProtKB P04035; set-up: species or system Escherichia coli
Property Measured: IC50

Example compounds with recorded IC50:
Compound: O=C(c1ccc(OCCN2CCCCC2)cc1)c1c(-c2ccc(O)cc2)sc2cc(O)ccc12
Meas Value: Not Active
//
Compound: COc1ccc2cc([C@H](C)C(=O)O)ccc2c1
Meas Value: Not Active
//
Compound: Cc1ccccc1C(=O)N1CCC(Cc2ccccc2)CC1
Meas Value: Not Active
//
Compound: CC[C@]1(O)C[C@@H]2CN(CCc3c([nH]c4ccccc34)[C@@](C(=O)OC)(c3cc4c(cc3OC)N(C)[C@H]3[C@@](O)(C(=O)OC)[C@H](OC(C)=O)[C@]5(CC)C=CCN6CC[C@]43[C@@H]65)C2)C1
Meas Value: Not Active
//
Compound: Clc1ccc2c(c1)C(N1CCNCC1)=Nc1ccccc1O2
Meas Value: Not Active

// each compound listed below needs its IC50
1. COc1cccc2c1C(=O)c1c(O)c3c(c(O)c1C2=O)C[C@@](O)(C(=O)CO)C[C@@H]3O[C@H]1C[C@H](N)[C@@H](O)[C@H](C)O1 [EPIRUBICIN]
2. COc1ccc2c(c1)[C@]13CCCC[C@@H]1[C@H](C2)N(C)CC3
3. CCN[C@@H]1C[C@H](N)[C@@H](O[C@H]2OC(CN)=CC[C@H]2N)[C@H](O)[C@H]1O[C@H]1OC[C@](C)(O)[C@H](NC)[C@H]1O

Response line:
Not Active
Not Active
Not Active

---

biological target: 3-hydroxy-3-methylglutaryl-coenzyme A reductase (Homo sapiens, UniProt P04035); set-up: species or system Escherichia coli;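 note: enzyme inhibition assay of HMG-CoA reductase using radiolabeled [14C]HMG-CoA as substrate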; note: in other assays of this panel Not Active means under 50% inhibition at 10 µM
Sequence (P04035 whole entry): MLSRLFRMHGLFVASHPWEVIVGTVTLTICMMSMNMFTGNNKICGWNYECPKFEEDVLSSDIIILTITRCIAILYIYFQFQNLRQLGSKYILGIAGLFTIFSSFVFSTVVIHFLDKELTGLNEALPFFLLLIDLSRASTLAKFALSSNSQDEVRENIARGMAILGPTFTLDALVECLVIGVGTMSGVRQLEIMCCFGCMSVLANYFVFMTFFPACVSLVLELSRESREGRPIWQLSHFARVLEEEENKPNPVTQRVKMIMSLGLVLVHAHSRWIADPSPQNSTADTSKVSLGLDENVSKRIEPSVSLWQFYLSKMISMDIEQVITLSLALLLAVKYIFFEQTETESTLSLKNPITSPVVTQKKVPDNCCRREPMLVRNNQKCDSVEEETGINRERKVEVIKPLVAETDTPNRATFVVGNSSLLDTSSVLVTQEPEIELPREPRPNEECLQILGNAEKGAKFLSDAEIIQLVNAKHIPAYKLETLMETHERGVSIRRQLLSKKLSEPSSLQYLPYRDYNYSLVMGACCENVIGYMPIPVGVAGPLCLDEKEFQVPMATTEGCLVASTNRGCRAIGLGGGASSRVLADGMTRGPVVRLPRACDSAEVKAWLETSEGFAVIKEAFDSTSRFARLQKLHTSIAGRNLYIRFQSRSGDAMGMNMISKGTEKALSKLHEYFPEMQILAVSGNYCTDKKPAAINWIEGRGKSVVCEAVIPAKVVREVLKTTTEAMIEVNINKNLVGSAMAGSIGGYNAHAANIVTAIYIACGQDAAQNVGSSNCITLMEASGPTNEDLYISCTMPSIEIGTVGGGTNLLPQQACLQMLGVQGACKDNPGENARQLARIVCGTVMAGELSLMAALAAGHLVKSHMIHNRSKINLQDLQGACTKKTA
Property Measured: IC50

Example compounds with recorded IC50:
Compound: COc1cc(NS(=O)(=O)c2ccc(N)cc2)nc(OC)n1
Property Measured: IC50
Meas Value: Not Active
--
Compound: Cn1c(=O)c2c(ncn2CC2OCCO2)n(C)c1=O
Property Measured: IC50
Meas Value: Not Active
--
Compound: CC/C(=C(/CC)c1ccc(O)cc1)c1ccc(O)cc1
Property Measured: IC50
Meas Value: Not Active
--
Compound: CC1(C)O[C@@H]2C[C@H]3[C@@H]4C[C@H](F)C5=CC(=O)C=C[C@]5(C)[C@@]4(F)[C@@H](O)C[C@]3(C)[C@]2(C(=O)CO)O1 [FLUOCINOLONE ACETONIDE]
Property Measured: IC50
Meas Value: Not Active
--
Compound: COc1ccc2[nH]c([S+]([O-])Cc3ncc(C)c(OC)c3C)nc2c1 (centres undefined)
Property Measured: IC50
Meas Value: Not Active

// each compound listed below needs its IC50
1. Cc1onc(-c2ccccc2)c1-c1ccc(S(N)(=O)=O)cc1
2. C[C@@H](N)[C@H]1CC[C@H](C(=O)Nc2ccncc2)CC1
3. CCN1CC(CCN2CCOCC2)C(c2ccccc2)(c2ccccc2)C1=O (centres undefined)

Response line:
1: Not Active; 2: Not Active; 3: Not Active

// each compound listed below needs its IC50
1. CCCCOc1ccc(OCCCN2CCOCC2)cc1
2. Cc1cccc(Nc2ccncc2S(=O)(=O)NC(=O)NC(C)C)c1 [TORSEMIDE]
3. N=C(N)NC(=O)c1nc(Cl)c(N)nc1N [AMILORIDE]
4. C[C@H]1O[C@@H](O[C@H]2[C@@H](O)C[C@H](O[C@H]3[C@@H](O)C[C@H](O[C@H]4CC[C@@]5(C)[C@H](CC[C@@H]6[C@@H]5CC[C@]5(C)[C@@H](C7=CC(=O)OC7)CC[C@]65O)C4)O[C@@H]3C)O[C@@H]2C)C[C@H](O)[C@@H]1O
5. CC(C)NCC(O)COc1cccc2ccccc12 (centres undefined)
6. CCCC(CCC)C(=O)O

Response line:
1: Not Active; 2: Not Active; 3: Not Active; 4: Not Active; 5: Not Active; 6: Not Active

Entry source: ChEMBL document CHEMBL1909046
